Values compiled from paper PMC6037691.

Tested on: WiDr (colon)
methodNotes: Antiproliferative activity, WiDr
Type: cell-based, human
conditionContext: Homo sapiens
Measured GI50 accompanies every entry in the list below.

{"columns": ["smilesNotation", "operator", "GI50 (µM)"],
 "data": [
  ["O=[N+]([O-])c1ccc(C=NNc2nc(-c3ccccc3)c[se]2)cc1", "=", 6.9],
  ["Cc1ccc(-c2c[se]c(NN=Cc3ccccc3)n2)cc1", ">", 100],
  ["Cc1ccc(-c2c[se]c(NN=Cc3cccc([N+](=O)[O-])c3)n2)cc1", "=", 55],
  ["COc1ccc(-c2c[se]c(NN=Cc3ccccc3[N+](=O)[O-])n2)cc1", "=", 22]
]}

* * *

Measured pEC50 accompanies every entry in the list below.
methodNotes: Total reducing power (TRP), modified potassium ferricyanide reduction method
conditionContext: concentration providing 0.500 of absorbance at 700 nm; mean ± SD, n = 3
pEC50: −log10 of the molar value.

{"columns": ["smilesNotation", "pEC50"],
 "data": [
  ["COc1ccc(-c2c[se]c(NN=Cc3cccc([N+](=O)[O-])c3)n2)cc1", 3.31],
  ["Cc1ccc(-c2c[se]c(NN=Cc3ccccc3)n2)cc1", 3.02],
  ["COc1ccc(-c2c[se]c(NN=Cc3ccccc3[N+](=O)[O-])n2)cc1", 3.25],
  ["COc1ccc(-c2c[se]c(NN=Cc3ccc([N+](=O)[O-])cc3)n2)cc1", 3.40]
]}

* * *

methodNotes: Total reducing power (TRP), modified potassium ferricyanide reduction method
conditionContext: concentration providing 0.500 of absorbance at 700 nm; mean ± SD, n = 3
pEC50: −log10 of the molar value.
reportedProperty: pEC50

{"columns": ["molecule", "quantitativeResult"],
 "data": [
  ["O=[N+]([O-])c1cccc(C=NNc2nc(-c3ccccc3)c[se]2)c1", 3.38],
  ["C(=NNc1nc(-c2ccccc2)c[se]1)c1ccccc1", 3.00],
  ["O=C1O[C@H]([C@@H](O)CO)C(O)=C1O [vitamin C, Ascorbic acid, reference compound]", 3.81],
  ["COc1ccc(-c2c[se]c(NN=Cc3ccccc3)n2)cc1", 3.09],
  ["Cc1ccc(-c2c[se]c(NN=Cc3cccc([N+](=O)[O-])c3)n2)cc1", 3.32],
  ["Cc1ccc(-c2c[se]c(NN=Cc3ccc([N+](=O)[O-])cc3)n2)cc1", 3.31],
  ["O=[N+]([O-])c1ccc(C=NNc2nc(-c3ccccc3)c[se]2)cc1", 3.42],
  ["O=[N+]([O-])c1ccccc1C=NNc1nc(-c2ccccc2)c[se]1", 3.41],
  ["Cc1ccc(-c2c[se]c(NN=Cc3ccccc3[N+](=O)[O-])n2)cc1", 3.33]
]}

* * *

Measured IC50 accompanies every entry in the list below.
system: MAO B (Homo sapiens)
Construct: purchased Sigma-Aldrich
Sequence (P27338 1-520): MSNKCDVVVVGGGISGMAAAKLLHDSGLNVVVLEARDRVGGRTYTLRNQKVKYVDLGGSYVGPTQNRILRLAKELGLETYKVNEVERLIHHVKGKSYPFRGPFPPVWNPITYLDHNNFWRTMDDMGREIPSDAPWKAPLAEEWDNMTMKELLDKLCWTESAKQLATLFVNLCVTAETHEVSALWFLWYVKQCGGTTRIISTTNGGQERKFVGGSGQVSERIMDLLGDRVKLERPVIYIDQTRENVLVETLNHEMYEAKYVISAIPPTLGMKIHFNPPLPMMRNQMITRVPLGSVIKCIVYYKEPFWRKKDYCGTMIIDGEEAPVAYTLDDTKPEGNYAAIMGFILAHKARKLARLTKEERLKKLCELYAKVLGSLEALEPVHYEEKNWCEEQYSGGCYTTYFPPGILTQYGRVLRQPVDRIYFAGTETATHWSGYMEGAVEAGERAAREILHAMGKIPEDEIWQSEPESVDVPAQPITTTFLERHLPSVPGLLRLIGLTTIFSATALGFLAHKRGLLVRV
methodNotes: MAO B inhibition, discontinuous fluorimetric kynuramine assay
Assay type: biochemical
conditionContext: mean, 95% CI; at least three experiments
Method: MAO A and B inhibition capacities were investigated using a discontinuous fluorimetric assay (Meiring et al., [2013]) as described previously by using human recombinant membrane-bound MAO purchased from Sigma-Aldrich (Affini et al., [2018]). Briefly, remained enzyme activity with inhibitor, either 1 μM (one-point) or concentrations ranging from 0.0001 to 10 μM, was assessed in the presence of kynuramine [2 × KM, KM = 20 μM (MAO A), KM = 30 μM (MAO B)] in potassium phosphate buffer (pH 7.4). […]

{"columns": ["molecule", "system", "IC50, nM"],
 "data": [
  ["O=[N+]([O-])c1ccc(C=NNc2nc(-c3ccccc3)c[se]2)cc1 [Compound 4]", "MAO B (Homo sapiens)", 73],
  ["C(=NNc1nc(-c2ccccc2)c[se]1)c1ccccc1 [Compound 1]", "MAO B (Homo sapiens)", 252]
]}
